This listing pairs binders with measured Trimeric HA Binding RLU.
molecular target: recombinant homotrimeric HA, A/chicken/Vietnam/NCVD-016/08 H5N1 (Influenza A virus A/chicken/Vietnam/NCVD-016/08 (H5N1)); test: trimeric HA microarray, transfection set 3; conditions: remark: other sources report otherwise
Supply the numeric figure in RLU, leaving out any unit text.

INSERT INTO assay_data (binder, reported_value) VALUES
  ('TCN-532 (5262_H18) (antibody, V domains shown) VH: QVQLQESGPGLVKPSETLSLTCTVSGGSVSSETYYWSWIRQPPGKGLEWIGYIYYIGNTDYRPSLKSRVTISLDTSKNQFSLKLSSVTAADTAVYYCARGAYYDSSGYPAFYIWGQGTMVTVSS VL: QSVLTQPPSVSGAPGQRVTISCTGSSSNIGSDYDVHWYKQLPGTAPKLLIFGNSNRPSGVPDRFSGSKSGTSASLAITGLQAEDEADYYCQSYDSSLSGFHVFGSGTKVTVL', 29),
  ('TCN-529 (5297_H01) (antibody, V domains shown) VH: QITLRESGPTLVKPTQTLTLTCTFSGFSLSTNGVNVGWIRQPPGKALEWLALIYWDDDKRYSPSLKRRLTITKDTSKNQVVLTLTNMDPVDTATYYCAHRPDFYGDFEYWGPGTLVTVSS VL: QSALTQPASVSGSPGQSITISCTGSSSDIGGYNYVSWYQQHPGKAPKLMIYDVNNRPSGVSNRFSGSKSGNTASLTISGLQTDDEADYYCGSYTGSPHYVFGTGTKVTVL', 33),
  ('TCN-523 (5248_A17) (antibody, V domains shown) VH: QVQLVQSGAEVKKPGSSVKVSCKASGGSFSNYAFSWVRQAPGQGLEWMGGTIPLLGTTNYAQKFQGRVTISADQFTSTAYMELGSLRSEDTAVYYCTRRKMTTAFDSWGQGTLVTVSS VL: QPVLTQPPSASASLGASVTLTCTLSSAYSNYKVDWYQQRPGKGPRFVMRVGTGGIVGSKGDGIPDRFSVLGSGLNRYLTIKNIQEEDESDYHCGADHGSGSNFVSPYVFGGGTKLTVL', 18900);

Incoming: Quick one: Trimeric HA Binding RLU for TCN-533 (5256_A17) (antibody, V domains shown) VH: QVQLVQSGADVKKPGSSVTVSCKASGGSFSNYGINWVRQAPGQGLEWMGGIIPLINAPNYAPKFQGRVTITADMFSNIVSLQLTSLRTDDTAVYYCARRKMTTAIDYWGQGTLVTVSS VL: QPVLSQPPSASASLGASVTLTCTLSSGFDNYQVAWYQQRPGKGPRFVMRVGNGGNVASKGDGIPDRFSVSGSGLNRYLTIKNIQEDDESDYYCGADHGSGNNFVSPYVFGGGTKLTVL ?
Outgoing: 24600
